# System: strains expressing class A ESBLs
# Type: cell-based

>  <compound>
O=C(O)[C@H]1/C(=C/CO)O[C@@H]2CC(=O)N21 [Clavulanic Acid, reference compound]

>  <MPC4 CTX-M-15 KP1009>
1.25 µg/mL

$$$$
>  <compound>
C[C@]1(Cn2ccnn2)[C@H](C(=O)O)N2C(=O)C[C@H]2S1(=O)=O [Tazobactam, reference compound]

>  <MPC4 CTX-M-15 KP1009>
10 µg/mL

$$$$

---

Reported IC50 values for a set of molecules
# tgt: various β-lactamases (bacterial lysates) (Escherichia coli, UniProt A0A5R8T042)
# Sequence (A0A5R8T042 29-291): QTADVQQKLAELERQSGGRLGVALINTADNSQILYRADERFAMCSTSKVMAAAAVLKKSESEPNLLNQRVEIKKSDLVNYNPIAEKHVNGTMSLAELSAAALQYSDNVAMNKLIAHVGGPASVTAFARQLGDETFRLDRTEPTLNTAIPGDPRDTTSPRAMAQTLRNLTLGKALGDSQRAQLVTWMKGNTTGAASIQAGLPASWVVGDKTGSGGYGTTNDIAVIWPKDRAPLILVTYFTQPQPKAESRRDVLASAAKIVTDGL
# method: biochemical
# Format: biochemical
# test parameters: read-out: AZT IC50 KP1009 CTX-M-15
readout type: IC50

>  <molecule>
O=C(O)C[C@@H]1CC[C@H](NC(=O)Cc2cccs2)B(O)O1 [Compound 5]

>  <result>
1.68 to 6.73 µM

$$$$
>  <molecule>
O=C(O)C[C@@H]1CC[C@H](NC(=O)Cc2ccccn2)B(O)O1 [Compound 57]

>  <result>
> 6.85 µM

$$$$
>  <molecule>
N=C(N)NCCC[C@@H](N)C(=O)N[C@H]1CC[C@@H](CC(=O)O)OB1O [Compound 47]

>  <result>
> 6.08 µM

$$$$
>  <molecule>
O=C(O)C[C@@H]1CC[C@H](NC(=O)c2cn(C3CC3)c3cc(N4CCNCC4)c(F)cc3c2=O)B(O)O1 [Compound 58]

>  <result>
> 4.11 µM

$$$$
>  <molecule>
C[C@]1(Cn2ccnn2)[C@H](C(=O)N[C@H]2CC[C@@H](CC(=O)O)OB2O)N2C(=O)C[C@H]2S1(=O)=O [Compound 59]

>  <result>
> 4.39 µM

$$$$
>  <molecule>
O=C(O)C[C@@H]1CC[C@H](NC(=O)CCc2nnc(-c3ccccc3)o2)B(O)O1 [Compound 60]

>  <result>
1.34 to 5.36 µM

$$$$
>  <molecule>
O=C(O)C[C@@H]1CC[C@H](NC(=O)[C@@H]2CCCCN2)B(O)O1 [Compound 45]

>  <result>
> 7.04 µM

$$$$
>  <molecule>
O=C(O)C[C@@H]1CC[C@H](NC(=O)Cc2cccnc2)B(O)O1 [Compound 43]

>  <result>
> 6.85 µM

$$$$
>  <molecule>
CC(C)(O/N=C(\C(=O)N[C@H]1CC[C@@H](CC(=O)O)OB1O)c1csc(N)n1)C(=O)O [Compound 36]

>  <result>
< 1.17 µM

$$$$
>  <molecule>
O=C(O)C[C@@H]1CC[C@H](NC(=O)Cc2ccncc2)B(O)O1 [Compound 49]

>  <result>
> 6.85 µM

$$$$
>  <molecule>
O=C(O)C[C@@H]1CC[C@H](NC(=O)Cn2ccnc2-c2ccccc2)B(O)O1 [Compound 54]

>  <result>
> 5.6 µM

$$$$
>  <molecule>
O=C(O)[C@H]1/C(=C/CO)O[C@@H]2CC(=O)N21 [Clavulanic Acid, reference compound]

>  <result>
1.24 µM

$$$$
>  <molecule>
O=C(O)C[C@@H]1CC[C@H](NC(=O)Cc2ccccc2)B(O)O1 [Compound 6]

>  <result>
< 1.72 µM

$$$$
>  <molecule>
Nc1nc(CC(=O)N[C@H]2CC[C@@H](CC(=O)O)OB2O)cs1 [Compound 39]

>  <result>
1.6 to 6.39 µM

$$$$
>  <molecule>
Nc1cc(CC(=O)N[C@H]2CC[C@@H](CC(=O)O)OB2O)ccn1 [Compound 61]

>  <result>
> 6.51 µM

$$$$
>  <molecule>
O=C(O)CC1CCC[C@H](NC(=O)Cc2cccs2)B(O)O1 (stereo partly shown) [Compound 63]

>  <result>
1.61 to 6.43 µM

$$$$
>  <molecule>
Cc1nc2ccccc2n1CCC(=O)N[C@H]1CC[C@@H](CC(=O)O)OB1O [Compound 55]

>  <result>
> 5.57 µM

$$$$
>  <molecule>
CCOC(=O)C[C@@H]1CC[C@H](NC(=O)Cc2cccs2)B(O)O1 [Compound 65]

>  <result>
> 6.15 µM

$$$$
>  <molecule>
O=C(O)CC1CC[C@H](NC(=O)C2CC2)B(O)O1 (stereo partly shown) [Compound 4]

>  <result>
2.07 to 8.3 µM

$$$$
>  <molecule>
CO/N=C(\C(=O)N[C@H]1CC[C@@H](CC(=O)O)OB1O)c1csc(N)n1 [Compound 40]

>  <result>
< 1.4 µM

$$$$
>  <molecule>
CSCCC(N)C(=O)N[C@H]1CC[C@@H](CC(=O)O)OB1O (stereo partly shown) [Compound 41]

>  <result>
> 6.58 µM

$$$$
>  <molecule>
O=C(O)C[C@@H]1CC[C@H](NC(=O)C[C@@H]2CCCCN2)B(O)O1 [Compound 53]

>  <result>
> 6.71 µM

$$$$
>  <molecule>
N[C@H](C(=O)N[C@H]1CC[C@@H](CC(=O)O)OB1O)c1ccccc1 [Compound 33]

>  <result>
> 6.53 µM

$$$$
>  <molecule>
O=C(O)C[C@@H]1CC[C@H](NC(=O)CCc2ccccc2)B(O)O1 [Compound 38]

>  <result>
1.64 to 6.55 µM

$$$$
>  <molecule>
NC1(CC(=O)N[C@H]2CC[C@@H](CC(=O)O)OB2O)CCCCC1 [Compound 51]

>  <result>
> 6.41 µM

$$$$
>  <molecule>
N[C@H]1CC[C@@H](CC(=O)N[C@H]2CC[C@@H](CC(=O)O)OB2O)CC1 [Compound 50]

>  <result>
> 6.41 µM

$$$$
>  <molecule>
Nc1nc(/C(=N/OCc2cc(=O)c(O)cn2O)C(=O)N[C@H]2CC[C@@H](CC(=O)O)OB2O)cs1 [Compound 62]

>  <result>
1.04 to 4.16 µM

$$$$
>  <molecule>
O=C(O)C[C@@H]1CC[C@H](NC(=O)C[C@H]2CCCCN2)B(O)O1 [Compound 52]

>  <result>
> 6.71 µM

$$$$

---

# tgt: various β-lactamases (bacterial lysates) (Klebsiella pneumoniae)
# Sequence (Q9F663 whole entry, looked up): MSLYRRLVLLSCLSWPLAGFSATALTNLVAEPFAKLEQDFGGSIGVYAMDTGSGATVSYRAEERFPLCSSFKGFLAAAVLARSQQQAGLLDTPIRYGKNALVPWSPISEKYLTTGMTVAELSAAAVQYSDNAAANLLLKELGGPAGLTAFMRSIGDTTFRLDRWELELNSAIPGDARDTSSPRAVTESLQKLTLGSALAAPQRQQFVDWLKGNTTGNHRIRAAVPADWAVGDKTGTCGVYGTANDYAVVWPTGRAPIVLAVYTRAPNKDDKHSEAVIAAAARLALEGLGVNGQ
# method: biochemical
# Type: biochemical
# test parameters: AZT IC50 KP1004 KPC-2

>  <compound>
O=C(O)[C@H]1/C(=C/CO)O[C@@H]2CC(=O)N21 [Clavulanic Acid, reference compound]

>  <IC50 (µM)>
3.72

$$$$

---

# tgt: various β-lactamases (bacterial lysates) (Klebsiella pneumoniae)
# method: biochemical
# Type: biochemical
# test parameters: lysate KP1004 KPC-2; aztreonam cleavage; read-out: AZT IC50 KP1004 KPC-2 (converted)
This section presents compounds with their documented IC50 values.

>  <compound>
Cc1nc2ccccc2n1CCC(=O)N[C@H]1CC[C@@H](CC(=O)O)OB1O

>  <IC50>
< 1390 nM

$$$$
>  <compound>
CC(C)(O/N=C(\C(=O)N[C@H]1CC[C@@H](CC(=O)O)OB1O)c1csc(N)n1)C(=O)O

>  <IC50>
1170 to 4670 nM

$$$$
>  <compound>
O=C(O)C[C@@H]1CC[C@H](NC(=O)c2ccccc2)B(O)O1

>  <IC50>
< 1800 nM

$$$$
>  <compound>
O=C(O)C[C@@H]1CC[C@H](NC(=O)Cc2cc(F)cc(F)c2)B(O)O1

>  <IC50>
< 1530 nM

$$$$
>  <compound>
O=C(O)C[C@@H]1CC[C@H](NC(=O)c2cn(C3CC3)c3cc(N4CCNCC4)c(F)cc3c2=O)B(O)O1

>  <IC50>
< 1030 nM

$$$$
>  <compound>
N[C@H]1CC[C@@H](CC(=O)N[C@H]2CC[C@@H](CC(=O)O)OB2O)CC1

>  <IC50>
< 1600 nM

$$$$
>  <compound>
O=C(O)C[C@@H]1CC[C@H](NC(=O)[C@@H]2CCCCN2)B(O)O1

>  <IC50>
1760 to 7040 nM

$$$$
>  <compound>
CC(=O)N[C@H]1CCC(CC(=O)O)OB1O (stereo partly drawn)

>  <IC50>
< 2330 nM

$$$$
>  <compound>
O=C(O)C[C@@H]1CC[C@H](NC(=O)c2ccc(Cn3cnnn3)cc2)B(O)O1

>  <IC50>
< 1390 nM

$$$$

---

# tgt: various β-lactamases (bacterial lysates) (Escherichia coli, UniProt A0A649V088)
# Sequence (A0A649V088 29-291): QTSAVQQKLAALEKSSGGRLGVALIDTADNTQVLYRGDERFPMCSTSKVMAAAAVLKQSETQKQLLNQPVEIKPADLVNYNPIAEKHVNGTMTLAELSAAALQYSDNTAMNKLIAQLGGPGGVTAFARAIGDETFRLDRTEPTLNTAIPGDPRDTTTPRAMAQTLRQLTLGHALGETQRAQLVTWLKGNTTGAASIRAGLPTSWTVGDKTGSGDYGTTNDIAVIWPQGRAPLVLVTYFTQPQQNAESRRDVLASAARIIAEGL
# method: biochemical
# test parameters: read-out: AZT IC50 KP1005 CTX-M-14
readout type: IC50

>  <compound>
O=C(O)C[C@@H]1CC[C@H](NC(=O)C[C@H]2CCCCN2)B(O)O1

>  <result>
> 6.71 µM

$$$$
>  <compound>
CC(C)(O/N=C(\C(=O)N[C@H]1CC[C@@H](CC(=O)O)OB1O)c1csc(N)n1)C(=O)O

>  <result>
< 1.17 µM

$$$$
>  <compound>
O=C(O)CC1CCC[C@H](NC(=O)Cc2cccs2)B(O)O1 (some centres unmarked)

>  <result>
1.61 to 6.43 µM

$$$$
>  <compound>
C[C@]1(Cn2ccnn2)[C@H](C(=O)N[C@H]2CC[C@@H](CC(=O)O)OB2O)N2C(=O)C[C@H]2S1(=O)=O

>  <result>
> 4.39 µM

$$$$
>  <compound>
O=C(O)C[C@@H]1CC[C@H](NC(=O)Cc2ccccn2)B(O)O1

>  <result>
< 1.71 µM

$$$$
>  <compound>
O=C(O)C[C@@H]1CC[C@H](NC(=O)CCc2nnc(-c3ccccc3)o2)B(O)O1

>  <result>
1.34 to 5.36 µM

$$$$
>  <compound>
O=C(O)C[C@@H]1CC[C@H](NC(=O)[C@H]2Cc3ccccc3CN2)B(O)O1

>  <result>
> 6.02 µM

$$$$
>  <compound>
O=C(O)C[C@@H]1CC[C@H](NC(=O)c2cn(C3CC3)c3cc(N4CCNCC4)c(F)cc3c2=O)B(O)O1

>  <result>
1.03 to 4.11 µM

$$$$
